biological target: UBE2V1; test: reporter assay of Huesken 2005; conditions: siRNA; note: test concentration or dose not given here
Oligonucleotides are written 5' to 3', each unit as a sugar letter and its base; * is a phosphorothioate linkage, no mark a phosphodiester; rarer units and linkages stand in square brackets, end groups in braces. Plain capitals give the bases only. d = 2'-deoxy (DNA); r = 2'-OH (RNA)
Assignment: determine reported normalised inhibition (eCFP-eYFP dual reporter) for the given substances.
One number for each entry, in %.

Each of the following entries comes with a recorded value; kindly state normalised inhibition (eCFP-eYFP dual reporter) for each.
1. sense rCrUrArGrArArGrArUrGrArCrGrArArGrArCrAdTdT / antisense rUrGrUrCrUrUrCrGrUrCrArUrCrUrUrCrUrArGdAdC
2. sense rUrCrArArArGrUrUrGrUrCrCrUrGrCrArArGrAdTdT / antisense rUrCrUrUrGrCrArGrGrArCrArArCrUrUrUrGrAdTdG
3. sense rGrArArGrArUrGrArCrGrArArGrArCrArUrGrAdTdT / antisense rUrCrArUrGrUrCrUrUrCrGrUrCrArUrCrUrUrCdTdA
4. sense rGrCrCrUrArArUrGrArUrGrUrCrUrArArArGrAdTdT / antisense rUrCrUrUrUrArGrArCrArUrCrArUrUrArGrGrCdGdC
5. sense rUrUrCrArCrUrGrCrArArArGrGrArGrUrArArAdTdT / antisense rUrUrUrArCrUrCrCrUrUrUrGrCrArGrUrGrArAdAdT
6. sense rCrCrUrCrCrArArGrArArCrArArUrUrUrArUrGdTdT / antisense rCrArUrArArArUrUrGrUrUrCrUrUrGrGrArGrGdCdC
7. sense rCrArUrArUrArGrCrArUrCrArArArGrUrUrGrUdTdT / antisense rArCrArArCrUrUrUrGrArUrGrCrUrArUrArUrGdAdA

88.8
89.8
95
94.5
81.4
63.1
77.7

Each of the following entries comes with a recorded value; kindly state normalised inhibition (eCFP-eYFP dual reporter) for each.
1. sense rGrCrArArGrArGrCrUrUrCrGrGrCrGrCrCrUrAdTdT / antisense rUrArGrGrCrGrCrCrGrArArGrCrUrCrUrUrGrCdAdG
2. sense rArGrUrUrCrUrArArUrGrGrArGrUrGrGrUrGrGdTdT / antisense rCrCrArCrCrArCrUrCrCrArUrUrArGrArArCrUdAdT

82.6
56.8
